measurementNotes: S. cerevisiae growth modulation with rapamycin, primary screen, strain BY4716, OD600, 96 h (AID 1091); note: test concentration not given here
experimentalContext: higher = more signal, called active from +8 up or from −8 down
Field: z-score. Provide a value for each of the compounds that follow.
Numbers only.

Worked examples follow.
INSERT INTO results (compound, reportedvalue) VALUES
  ('C[C@H]1NC(=O)[C@H](Cc2ccccc2)NC(=O)[C@@]23C(=O)N[C@@H](Cc4ccccc4)C2[C@H](C)[C@@]2(C)O[C@H]2C3/C=C/C/C=C\CNC1=O (stereo partly drawn)', 0.865),
  ('CCOC(=O)C[C@H]1[C@H](OC(=O)c2ccc(-c3ccccc3)cc2)[C@@H](NC(=O)c2ccc(-c3ccccc3)cc2)c2cc(OCCCO)ccc2N1C(=O)Cc1ccc(OC)cc1', 0.16);

Query: Identify measured z-score corresponding to CCCCCN1CC=CC23O[C@@H]4C=CCOC(=O)[C@@H]4[C@H]2C(=O)N(CCCO)[C@@H]3C1=O (stereo partly drawn)
Result: -1.05

* * *

measurementNotes: osmotic lysis modulators in infected erythrocytes, primary screen, PSAC antagonist project, cell-based, P. falciparum Indochina, OD700, 3 h (AID 1156)
experimentalContext: higher = more signal, called active from +8 up or from −8 down
measuredProperty: z-score
Numbers only.

INSERT INTO results (molecule, reportedvalue) VALUES
  ('CC(C)N1C(=O)c2ccccc2[C@@H](C(=O)NCCCN(C)C)[C@@H]1c1ccc(CO)cc1', 2.5),
  ('COc1ccc(C(O)C2C=CC3C(=O)N(C)C(=O)C3N2Nc2ccccc2)cc1OCc1ccccc1 (configuration not stated)', 0.272),
  ('CCOC(=O)C[C@H]1[C@H](OC(=O)c2ccc(C(=O)c3ccccc3)cc2)[C@@H](NC(=O)C2CCCCC2)c2cc(OCCCO)ccc2N1C(=O)c1ccccc1', -0.562),
  ('COCCOC(=O)N1C(=O)[C@@]2(c3cc(C#CC4=CCCCC4)ccc31)[C@H](C(=O)NC[C@H](O)c1ccccc1)[C@H]1C(=O)O[C@H](c3ccccc3)[C@H](c3ccccc3)N1[C@@H]2c1ccc(O)cc1', 0.0873),
  ('CCOC(=O)C[C@H]1[C@H](OC(=O)Cc2ccc3c(c2)OCO3)[C@@H](NC(=O)c2ccc(-c3ccccc3)cc2)c2cc(OCCCO)ccc2N1C(=O)c1ccccc1', -0.825);

Batch request: z-score per item, same order as input.
1. CCCCC(O)C1C=CC2C(=O)N(C3CCCCC3)C(=O)C2N1Nc1ccc(OC)cc1 (configuration not stated)
2. Cc1ccc([C@H]2[C@H](C(=O)O)[C@H](Sc3ccccc3)[C@@H](C(C)C)N2S(=O)(=O)c2ccc(C)cc2)cc1
3. COC(=O)[C@@]1(Cc2ccccc2)[C@H]2c3cc(C(=O)N(C)C)n(Cc4c(-c5ccccc5)noc4C)c3C[C@H]2CN1C(=O)c1ccccc1
4. CCCNC(=O)[C@@H]1c2ccccc2C(=O)N(Cc2ccccc2)[C@H]1c1ccc(CO)cc1

Result:
1. 0.517
2. -0.922
3. 0.57
4. 1.41

* * *

measurementNotes: adipocyte viability effects, profiling panel, cell-based, 3T3-L1 adipocytes, calcein-AM fluorescence, 48 h, basal (AID 1163); note: test concentration not given here
experimentalContext: 3T3-L1 adipocytes viability, higher = more signal
measuredProperty: z-score
One number for each entry.

INSERT INTO assay_data (smilescode, reportedvalue) VALUES
  ('COCCOC(=O)N1C(=O)[C@@]2(c3cc(C#CCCO)ccc31)[C@H](C(=O)NC[C@H](O)c1ccccc1)[C@H]1C(=O)O[C@H](c3ccccc3)[C@H](c3ccccc3)N1[C@@H]2c1ccc(O)cc1', 0.0669),
  ('CCCNC(=O)[C@@H]1c2ccccc2C(=O)N(Cc2ccccc2)[C@H]1c1ccc(CO)cc1', 1.38),
  ('COc1cc(CO)ccc1OC(C)=O', 0.584),
  ('COc1ccc(CCNC(=O)[C@@H]2c3ccccc3C(=O)N(Cc3ccc(OC(F)(F)F)cc3)[C@H]2c2ccc(CO)cc2)cc1', 0.614),
  ('CCCCCCc1nc(CCCc2cc3c(c(CCCCCC)n2)[Si](C(C)C)(C(C)C)OC3)cc2c1[Si](C(C)C)(C(C)C)OC2', 1.78);

# map each compound to its z-score
1. COCCOC(=O)N1C(=O)[C@@]2(c3ccccc31)[C@H](C(=O)NC[C@H](O)c1ccccc1)[C@H]1C(=O)O[C@H](c3ccccc3)[C@H](c3ccccc3)N1[C@@H]2c1ccc(OCCO)cc1
2. COC(=O)c1c(CC[C@@H](CO)NC(=O)N[C@@H](Cc2ccccc2)Cn2cc(C3(O)CCCCC3)nn2)oc(C(C)=O)c1C(=O)OC

Result:
1.13
2.01

* * *

Answer each item with its documented z-score.
measurementNotes: PSAC antagonists in infected red cells, primary screen, cell-based, P. falciparum Indochina, OD700, 18 h (AID 1157)
experimentalContext: P. falciparum Indochina infected erythrocytes, osmotic lysis OD700, 18 h; higher = more signal, called active from +8 up or from −8 down
Calls of active or inactive are those of the source.

Give one value of z-score per listed molecule.
1. CC(=O)C1=CCC(c2ccccc2)N(S(=O)(=O)c2ccc(C)cc2)C1 (stereo not drawn)
2. COc1ccc(CCNC(=O)[C@@H]2c3ccccc3C(=O)N(Cc3ccc(OC(F)(F)F)cc3)[C@H]2c2ccc(CO)cc2)cc1
3. CC(C)(C)OC(=O)CC[C@@]1(C(=O)O)N=C(c2ccc(OCCCO)cc2)O[C@@H]1c1ccccc1N=[N+]=[N-]
4. CC(=O)Nc1cc(Br)ccc1C(=O)O
5. COc1ccc(C(O)C2C=CC3C(=O)N(c4ccccc4)C(=O)C3N2Nc2ccc([N+](=O)[O-])cc2)cc1OCc1ccccc1 (stereo not drawn)

Result:
1.07 (inactive)
0.623 (inactive)
7.51 (inactive)
0.305 (inactive)
0.926 (inactive)

Would you mind giving z-score for every molecule in the list below?
1. NCCCCCNC(=O)[C@H]1C[C@H]2C(=O)NCC(=O)N2[C@H]1c1cccc(OCCO)c1
2. C=CCN1C(=O)[C@]2(O[C@H](CCO)[C@@H]([Si](C)(C)c3ccc(OC)cc3)[C@@H]2C)c2cc(NC(=O)[C@H](C)O)ccc21

Result:
1: 0.0799 (inactive); 2: 1.43 (inactive)

Query: Name the recorded z-score of the item CN(C)C(=O)[C@]1(CCC(=O)OC(C)(C)C)N=C(c2ccc(OCCCO)cc2)O[C@@H]1c1ccccc1N=[N+]=[N-] in your answer.
Result: 2.34 (inactive)

* * *

measurementNotes: P. aeruginosa biofilm formation inhibitors, primary screen, PAO1 strain, BacTiter-Glo luminescence, LB-PBS (AID 1144)
experimentalContext: 12 h, higher = more signal
measuredProperty: z-score
Numbers only.

// solved cases for z-score follow
INSERT INTO assay_data (compound, measuredproperty, reportedvalue) VALUES
  ('CC1CC/C=C\[C@H]2OC34C=CCN(Cc5ccccc5)C(=O)[C@H]3N(CCCCCO)C(=O)[C@@H]4C2C(=O)O1 (some centres undefined)', 'z-score', 1.96),
  ('COCCOC(=O)N1C(=O)[C@@]2(c3cc(C#CCNC(N)=O)ccc31)[C@H](c1ccc(OCCO)cc1)N1[C@H](c3ccccc3)[C@H](c3ccccc3)OC(=O)[C@H]1[C@@H]2C(=O)N1CCc2cc(OC)c(OC)cc2C1', 'z-score', -1.59);

Kindly give each listed record's z-score.
1. CCCNC(=O)[C@@]1(c2ccc([N+](=O)[O-])cc2)CC(=O)N(CC23CC4CC(CC(C4)C2)C3)[C@@H]1c1ccc(CO)cc1
2. CN1C=C(C(=O)OCCS(C)(=O)=O)C(C(=O)OCCS(C)(=O)=O)=CC(CCCO)=CC1C1CC1 (centres undefined)
3. COc1ccc(C(O)C2C=CC3C(=O)N(c4ccccc4)C(=O)C3N2Nc2ccc([N+](=O)[O-])cc2)cc1OCc1ccccc1 (centres undefined)
4. CC(=CC1CCCCC1)[C@@H](NC(=O)c1ccc(C(F)(F)F)cc1)c1ccc(-c2ccccc2)cc1
5. C=CC[C@@]1(C(=O)NCC(O)CO)N=C(c2ccc(OCCCO)cc2)O[C@@H]1c1ccccc1N=[N+]=[N-] (some centres undefined)
6. CCOC(=O)C1=CCC(c2ccc(C#N)cc2)N(S(=O)(=O)c2ccc(C)cc2)C1 (centres undefined)

Result:
1: -0.293; 2: -0.483; 3: 0.208; 4: -0.019; 5: -0.281; 6: -0.0317

* * *

measurementNotes: small-molecule binders of probe aInhba, primary screen, biochemical, small-molecule microarray, 635/667 nm fluorescence (AID 1148);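 note: score merges 667nm spot fluorescence with signal-to-noise for antibody binding to printed compounds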
experimentalContext: higher = more signal
Entry flag: rule met if composite z-score reaches 0.06; rule not met if it does not.

INSERT INTO measurements (compound, classification) VALUES
  ('COc1cc2c(cc1OC)CN(C(=O)[C@@H]1[C@H]3C(=O)O[C@H](c4ccccc4)[C@H](c4ccccc4)N3[C@H](c3ccccc3OCCO)[C@@]13C(=O)Nc1ccc(C#CCNC(N)=O)cc13)CC2', 'rule met'),
  ('COC(=O)c1ccc(OC)c(/C=C\CC(OC(C)=O)c2ccccc2)c1 (configuration not stated)', 'rule not met'),
  ('[N-]=[N+]=NCc1ccccc1C[C@]1(C(=O)O)N=C(c2ccc(OCCCO)cc2)O[C@H]1c1ccccc1', 'rule not met'),
  ('CCOC(=O)C1=CCC(c2ccc([N+](=O)[O-])cc2)N(S(=O)(=O)c2ccc(C)cc2)C1 (configuration not stated)', 'rule met'),
  ('COCCOC(=O)N1C(=O)[C@@]2(c3ccccc31)[C@H](C(=O)Nc1nc3ccccc3s1)[C@H]1C(=O)O[C@H](c3ccccc3)[C@H](c3ccccc3)N1[C@@H]2c1ccc(OCCO)cc1', 'rule not met'),
  ('Cc1cc(C)cc(N2C(=O)CS(=O)(=O)C2c2cccc([N+](=O)[O-])c2)c1 (configuration not stated)', 'rule met');

Now consider a different compound.
Query: Hi, just wondering whether CCCC[C@@H]1C[C@H]1[C@@H](NC(=O)c1ccc(-c2ccccc2)cc1)c1ccc(-c2ccccc2)cc1 shows composite z-score of 0.06 or higher.
Result: rule not met
